# credit: patent US8937091B2

Tested on: IICR (IP3 induced calcium release) in CHO cells
procedure-summary: Assay of IICR (IP3 induced calcium release)-inhibiting action
Type: cell-based, Chinese hamster
measurement-setup: Cricetulus griseus, CHO, test compound 10 μmol; CHO cells, 10 μM ATP; read-out: IICR level (percentage of inhibition)
Below, each entry is listed alongside its reported inhibition at 10 µM.
The reply should contain only the number, in %.

In the examples that follow, each entry is paired with its recorded inhibition at 10 µM.
compound | inhibition at 10 µM [%]
O=C(CCN1CCCCC1CO)c1ccc(Br)s1 (stereo not shown) | 60
CC(C)(C)N(CCC(=O)c1sccc1Br)Cc1ccccc1 | 89
CCC(CO)(CO)NCCC(=O)c1ccc(Br)s1 | 0
CN(CCO)CCC(=O)c1ccncc1 | 0
CCCCN(CCO)CCC(=O)c1ccc(Oc2ccccc2)cc1 | 70

Incoming: Requested field: inhibition at 10 µM. Item: "NCCCCN(CCCN)CCC(=O)c1ccc(Br)s1"
Outgoing: 10

Incoming: // next record "CC(C)N(CCC(=O)c1cnccn1)Cc1ccccc1"
Outgoing: 20

Incoming: // next record "CC(C)N(CCO)CCC(=O)c1ccc(C#N)cc1"
Outgoing: 0

Incoming: // next record "CN(CCC(=O)c1ccc(Br)s1)Cc1ccccc1"
Outgoing: 40

Incoming: // next record "CC(C)N(CCC(=O)c1cccnc1)Cc1ccccc1"
Outgoing: 90

Incoming: // next record "CC(C)N(CCC(=O)c1ccc(I)s1)Cc1ccccc1"
Outgoing: 0

Incoming: // next record "NCCCNCCCCNCCC(=O)c1ccc2ccccc2c1"
Outgoing: 0

Incoming: // next record "CN(CCC(=O)c1cccs1)Cc1ccccc1"
Outgoing: 0

Incoming: // next record "O=C(CCNCCCCNCCCNCCC(=O)c1ccncc1)c1ccncc1"
Outgoing: 0

Incoming: // next record "CC(C)N(CCO)CCC(=O)c1cccs1"
Outgoing: 0

Incoming: // next record "CCN(CCC(=O)c1ccccn1)Cc1ccccc1"
Outgoing: 30

Incoming: // next record "CN(CCC(=O)c1ccco1)Cc1ccccc1"
Outgoing: 30

Incoming: // next record "NCCSSCCN(CCC(=O)c1ccc(Cl)s1)CCC(=O)c1ccc(Cl)s1"
Outgoing: 0

Incoming: // next record "O=C(CCNCCN(CCO)CCC(=O)c1cnccn1)c1cnccn1"
Outgoing: 40

Incoming: // next record "CCCCN(CCO)CCC(=O)c1nc(C)cs1"
Outgoing: 0

Incoming: // next record "CC(C)N(CCO)CCC(=O)c1ccc(-c2ccccc2)cc1"
Outgoing: 60

Incoming: // next record "CCN(CCC(=O)c1cccs1)Cc1ccccc1"
Outgoing: 20

Incoming: // next record "CCCCN(CCO)CCC(=O)c1ccco1"
Outgoing: 0

###

Tested on: IICR (IP3 induced calcium release) in CHO cells
procedure-summary: Assay of IICR (IP3 induced calcium release)-inhibiting action
Format: cell-based, Chinese hamster
measurement-setup: Cricetulus griseus, CHO, test compound 30 μmol; CHO cells, 10 μM ATP; read-out: IICR level (percentage of inhibition)
measure: inhibition at 30 µM (%)
The reply should contain only the number, in %.

compound | numeric-readout
Cc1csc(C(=O)CCN(CCO)Cc2ccccc2)c1 [Example 323] | 50

Incoming: Requested field: inhibition at 30 µM. Item: O=C(CCN(CCO)Cc1ccccc1)c1cccnc1 [Example 177]
Outgoing: 0

Incoming: // next record O=C(CCNCCN(CCO)CCC(=O)c1ccc(Br)s1)c1ccc(Br)s1 [Example 354]
Outgoing: 0

Incoming: // next record O=C(CCN1CCC(CCO)CC1)c1ccc(Br)s1 [Example 361]
Outgoing: 0

Incoming: // next record CC(C)N(CCC(=O)c1ccc2ccccc2c1)Cc1ccccc1 [Example 66]
Outgoing: 10

Incoming: // next record NCCCCN(CCCN)CCC(=O)c1ccc(Br)s1 [Example 344]
Outgoing: 40

Incoming: // next record CCC(CO)(CO)NCCC(=O)c1cccc2ccccc12 [Example 141]
Outgoing: 20

Incoming: // next record CC(C)N(CCO)CCC(=O)c1ccsc1 [Example 56]
Outgoing: 0

Incoming: // next record CN(CCC(=O)c1cccnc1)Cc1ccccc1 [Example 248]
Outgoing: 10

Incoming: // next record CC(CN(CCO)CCO)C(=O)c1ccc(F)cc1 (centres unmarked) [Example 160]
Outgoing: 0

Incoming: // next record CN(CCC(=O)c1ccc(Cl)s1)Cc1ccccc1 [Example 279]
Outgoing: 0

Incoming: // next record CN(CCC(=O)c1ccco1)Cc1ccccc1 [Example 233]
Outgoing: 70

Incoming: // next record CC(C)(C)N(CCC(=O)c1ccc(I)s1)Cc1ccccc1 [Example 405]
Outgoing: 73

Incoming: // next record CN(CCC(=O)c1cnccn1)Cc1ccccc1 [Example 215]
Outgoing: 0

###

System: IICR (IP3 induced calcium release) in CHO cells
procedure-summary: Assay of IICR (IP3 induced calcium release)-inhibiting action
Assay type: cell-based, Chinese hamster
measurement-setup: Cricetulus griseus, CHO, test compound 100 μmol; CHO cells, 10 μM ATP; read-out: IICR level (percentage of inhibition)
So basically: inhibition at 100 µM at 70% or higher? That is 1. Lower than 70%? That is 0.

compound | class-assignment
CCCCN(CCO)CCC(=O)c1cccs1 | 0
CCCCN(CCO)CCC(=O)c1cnccn1 | 1
CC(C)N(CCO)CCC(=O)c1ccc(C#N)cc1 | 0
COc1ccc(C(=O)CCN(CCO)CCO)cc1 | 1

# evaluate next
Incoming: Assess whether reported inhibition at 100 µM for "Cc1cccc2cc(C(=O)CCN(Cc3ccccc3)C(C)C)ccc12" sits at 70% or higher.
Outgoing: 1

###

System: IICR (IP3 induced calcium release) in CHO cells
procedure-summary: Assay of IICR (IP3 induced calcium release)-inhibiting action
Format: cell-based, Chinese hamster
measurement-setup: Cricetulus griseus, CHO, test compound 30 μmol; CHO cells, 10 μM ATP; read-out: IICR level (percentage of inhibition)
Below, each entry is listed alongside its reported inhibition at 30 µM.
The reply should contain only the number, in %.

In the examples that follow, each entry is paired with its recorded inhibition at 30 µM.
molecule | measure | numeric-readout
CCN(CCO)CCC(=O)c1ccc(Br)s1 [Example 331] | inhibition at 30 µM | 10
Cc1cccc2cc(C(=O)CCN(c3ccccc3)c3ccccc3)ccc12 [Example 80] | inhibition at 30 µM | 50
CC(C)(C)N(CCC(=O)c1ccc2c(c1)OCCO2)Cc1ccccc1 [Example 317] | inhibition at 30 µM | 95

Incoming: Requested field: inhibition at 30 µM. Item: CC(C)(C)N(CCC(=O)c1ccc(Cl)cc1)Cc1ccccc1 [Example 305]
Outgoing: 70

###

study-system: TGase (Cavia porcellus)
Assay type: biochemical
measure: TG-activity-inhibiting action or protein-crosslinking-inhibiting action (in words)

compound-structure | study-system | result
C=CC(=O)c1ccc(F)cc1 | TGase (Cavia porcellus) | high
O=C(CCN(CCO)Cc1ccccc1)c1cnccn1 | TGase (Cavia porcellus) | strongly
CC(C)N(CCC(=O)c1ccc(C#N)cc1)Cc1ccccc1 | TGase (Cavia porcellus) | strongly
CC(C)(C)N(CCC(=O)c1cc2ccccc2s1)Cc1ccccc1 | TGase (Cavia porcellus) | strongly

Incoming: Requested field: TG-activity-inhibiting action or protein-crosslinking-inhibiting action (in words). Item: "C=CC(=O)c1ccc2c(F)cccc2c1"
Outgoing: high

Incoming: // next record "CCN(CCC(=O)c1nccs1)Cc1ccccc1"
Outgoing: strongly

Incoming: // next record "C=CC(=O)c1cc2c(cc1Br)OCO2"
Outgoing: high

Incoming: // next record "Cc1ccsc1C(=O)CCN(Cc1ccccc1)C(C)(C)C"
Outgoing: strongly

###

Tested on: IICR (IP3 induced calcium release) in CHO cells
procedure-summary: Assay of IICR (IP3 induced calcium release)-inhibiting action
Assay type: cell-based, Chinese hamster
measurement-setup: Cricetulus griseus, CHO, test compound 10 μmol; CHO cells, 10 μM ATP; read-out: IICR level (percentage of inhibition)
measure: inhibition at 10 µM (%)
The reply should contain only the number, in %.

Incoming: Requested field: inhibition at 10 µM. Item: "CC(C)N(CCC(=O)c1cc(Cl)sc1Cl)Cc1ccccc1"
Outgoing: 50

Incoming: // next record "O=C(CCN(c1ccccc1)c1ccccc1)c1ccc2ccccc2c1"
Outgoing: 0

Incoming: // next record "O=C(CCNCCO)c1ccco1"
Outgoing: 30

Incoming: // next record "CN(CCC(=O)c1cccnc1)Cc1ccccc1"
Outgoing: 0

Incoming: // next record "O=C(CCN(CCO)CCO)n1nnc2ccccc21"
Outgoing: 0

Incoming: // next record COC(=O)C(CSSCC(NCCC(=O)c1ccc(C)s1)C(=O)OC)NCCC(=O)c1ccc(C)s1 (stereo not shown)
Outgoing: 57

Incoming: // next record "CC(C)N(CCO)CCC(=O)c1ccc(Cl)cc1"
Outgoing: 50

Incoming: // next record "CC(C)N(CCC(=O)c1ccc(Oc2ccccc2)cc1)Cc1ccccc1"
Outgoing: 50

Incoming: // next record "CC(C)N(CCC(=O)c1ccc2c(Cl)cccc2c1)Cc1ccccc1"
Outgoing: 90

Incoming: // next record "CCC(CO)(CO)NCCC(=O)c1cccc2ccccc12"
Outgoing: 20

Incoming: // next record CC(CNC12CC3CC(CC(C3)C1)C2)C(=O)c1ccc(F)cc1 (stereo not shown)
Outgoing: 0

Incoming: // next record "CC(C)N(CCO)CCC(=O)N1CCCCCC1=O"
Outgoing: 0

Incoming: // next record "CCCCN(CCO)CCC(=O)c1cccnc1"
Outgoing: 0
